Origin of values: patent US20120277209A1

system-under-test: PDE10 (UniProt Q9Y233)
test-name: PDE10 enzyme inhibition, IMAP TR-FRET assay (MPDE10A7 Enzyme Activity and Inhibition)
Type: biochemical
run-parameters: IC50 class against PDE10; read-out: IC50
readout-label: IC50

Example entries begin here.
>  <compound>
O=C(c1ccc(Oc2nccnc2-c2ccnc3ccccc23)cc1)c1nc2ccccc2[nH]1 [Example 129]

>  <readout-label>
IC50

>  <reported-value>
25 to 100 nM

$$$$
>  <compound>
CC(=O)N1CCC(c2nccnc2Oc2ccc(C(=O)c3nc4ccccc4[nH]3)cc2)CC1 [Example 224]

>  <readout-label>
IC50

>  <reported-value>
< 25 nM

$$$$
>  <compound>
COC(=O)N1CCC(c2nccnc2Oc2ccc(C(=O)c3nc4ccccc4[nH]3)cc2)CC1 [Example 227]

>  <readout-label>
IC50

>  <reported-value>
< 25 nM

$$$$
>  <compound>
COCC1CCN(c2nccnc2Oc2ccc(Nc3nc4ccccc4s3)cc2)CC1 [Example 87]

>  <readout-label>
IC50

>  <reported-value>
25 to 100 nM

$$$$
>  <compound>
c1ccc2sc(Nc3ccc(Oc4nccnc4-c4cnc5[nH]ccc5c4)cc3)nc2c1 [Example 141]

>  <readout-label>
IC50

>  <reported-value>
25 to 100 nM

$$$$

Batch: IC50 for all items listed.
1. O=C(c1ccc(Oc2nccnc2C(=O)NCCc2ccccc2)cc1)c1nc2ccccc2[nH]1 [Example 254]
2. O=C(c1ccc(Oc2nccnc2OCCCc2cccnc2)cc1)c1nc2ccccc2[nH]1 [Example 178]
3. CC(=O)N1CCC(c2nccnc2Oc2ccc(Nc3nc4ccccc4s3)cc2F)CC1 [Example 248]
4. O=C(c1ccc(Oc2nccnc2C2CCCC2)cc1)c1nc2ccccc2[nH]1 [Example 220]
5. c1cncc(-c2nccnc2Oc2ccc(Nc3nc4ccccc4s3)cc2)c1 [Example 148]

Given back:
1: < 25 nM; 2: 25 to 100 nM; 3: < 25 nM; 4: 25 to 100 nM; 5: < 25 nM

Count: 5. Required value per item: IC50.
1. CC1(O)CCN(c2nccnc2Oc2ccc(Nc3nc4ccccc4s3)cc2)CC1 [Example 60]
2. COC(=O)C1(c2nccnc2Oc2ccc(Nc3nc4ccccc4s3)cc2)CCN(C(=O)OC(C)(C)C)CC1 [Example 205]
3. CC(C)(C)OC(=O)N1CCC(CO)(c2nccnc2Oc2ccc(Nc3nc4ccccc4s3)cc2)CC1 [Example 206]
4. OC1CCCN(c2nccnc2Oc2ccc(Nc3nc4ccccc4s3)cc2)C1 (stereo not drawn) [Example 69]
5. CC(C)COc1nccnc1Oc1ccc(C(=O)c2nc3ccccc3[nH]2)cc1 [Example 162]

Given back:
< 25 nM
< 25 nM
25 to 100 nM
< 25 nM
1000 to 5000 nM

###

system-under-test: PDE10 (UniProt Q9Y233)
test-name: PDE10 enzyme inhibition, IMAP TR-FRET assay (MPDE10A7 Enzyme Activity and Inhibition)
Format: biochemical
run-parameters: PDE10 enzyme inhibition; average IC50 data for each compound; read-out: Average IC50
readout-label: IC50 (nM)
Numbers only, in nM.

Solved entries:
>  <compound>
N#Cc1cccc(-c2nccnc2Oc2ccc(C(=O)c3nc4ccccc4[nH]3)cc2)c1 [drawing 756]

>  <uom>
nM

>  <IC50>
42

$$$$
>  <compound>
COCC(=O)N1CCC(c2nccnc2Oc2ccc(C(=O)c3nc4ccccc4n3C)cc2)CC1 [drawing 982]

>  <uom>
nM

>  <IC50>
0.521

$$$$

Kindly consider the entry below.
Asked: Give the measured IC50 of O=C1CCCC(c2nccnc2Oc2ccc(C(=O)c3nc4ccccc4[nH]3)cc2)C1 (stereo not drawn) .
Given back: 1.33

###

system-under-test: PDE10 (UniProt Q9Y233)
test-name: PDE10 enzyme inhibition, IMAP TR-FRET assay (MPDE10A7 Enzyme Activity and Inhibition)
Type: biochemical
run-parameters: PDE10 enzyme inhibition; average IC50 data for each compound; read-out: Average IC50
pIC50: −log10 of the molar value.
Quick rule for you: pIC50 at 8 or higher means satisfied, lower means not satisfied.

>  <compound>
C[C@@H](O)C(=O)N1CCC(c2nccnc2Oc2ccc(Nc3nc4ccccc4s3)cc2)CC1 (stereo in doubt)

>  <category>
satisfied

$$$$

Now look at this one.
Asked: Hello, I need to know if CC(C)(O)[C@H]1CCCN(c2nccnc2Oc2ccc(C(=O)c3nc4ccccc4[nH]3)cc2)C1 (stereo in doubt) has measured pIC50 not below 8. Thanks!
Given back: not satisfied

###

system-under-test: UniProtKB Q9Y233
test-name: PDE10 enzyme inhibition, IMAP TR-FRET assay (MPDE10A7 Enzyme Activity and Inhibition)
Type: biochemical
run-parameters: PDE10 enzyme inhibition; average IC50 data for each compound; read-out: Average IC50
readout-label: pIC50
Give bare numbers, as −log10 of the molar value.

For orientation, consider the following solved cases.
>  <compound>
O=C(c1ccc(Oc2nccnc2-c2cccc3ncccc23)cc1)c1nc2ccccc2[nH]1 [drawing 803]

>  <pIC50>
8.50

$$$$
>  <compound>
c1ccc2[nH]c(Nc3ccc(Oc4nccnc4C4CCOCC4)cc3)nc2c1 [drawing 863]

>  <pIC50>
10.00

$$$$
>  <compound>
O=C(c1ccc(Oc2nccnc2[C@@H]2CCC[C@@H](O)C2)cc1)c1nc2ccccc2[nH]1 (stereo in doubt) [drawing 898]

>  <pIC50>
8.90

$$$$
>  <compound>
CC(=O)N1CC(c2nccnc2Oc2ccc(C(=O)c3nc4ccccc4[nH]3)cc2)C1 [drawing 925]

>  <pIC50>
8.57

$$$$
>  <compound>
Cc1ncccc1-c1nccnc1Oc1ccc(C(=O)c2nc3ccccc3[nH]2)cc1 [drawing 947]

>  <pIC50>
8.68

$$$$
>  <compound>
O=C(c1ccc(Oc2nccnc2Oc2cccnc2)cc1)c1nc2ccccc2[nH]1 [drawing 851]

>  <pIC50>
7.29

$$$$
>  <compound>
COc1ncccc1-c1nccnc1Oc1ccc(Nc2nc3cccc(F)c3s2)cc1 [drawing 950]

>  <pIC50>
8.11

$$$$
>  <compound>
CCOC(=O)C1CCN(c2nccnc2Oc2ccc(C(=O)c3nc4ccccc4[nH]3)cc2)CC1

>  <pIC50>
8.28

$$$$
>  <compound>
c1ccc2sc(Nc3ccc(Oc4nccnc4N4CCC5(CC4)OCCO5)cc3)nc2c1 [drawing 784]

>  <pIC50>
7.17

$$$$
>  <compound>
N#C[C@H]1CCN(c2nccnc2Oc2ccc(C(=O)c3nc4ccccc4[nH]3)cc2)C1 [drawing 829]

>  <pIC50>
8.88

$$$$

Give pIC50 for each of the items listed below.
1. O=C(c1ccc(Oc2nccnc2N2CC[C@H](O)C2)cc1)c1nc2ccccc2[nH]1
2. CCCOc1nccnc1Oc1ccc(C(=O)c2nc3ccccc3[nH]2)cc1 [drawing 905]
3. O=C(c1ccc(Oc2nccnc2N2CC[C@@H](CO)C2)cc1)c1nc2ccccc2[nH]1
4. C[C@]1(O)CC[C@@H](c2nccnc2Oc2ccc(C(=O)c3nc4ccccc4[nH]3)cc2)CC1 [drawing 923]
5. [2H]C([2H])([2H])C(=O)N1CCC(c2nccnc2Oc2ccc(C(=O)c3nc4ccccc4[nH]3)cc2)CC1 [drawing 993]
6. O=C(c1ccc(Oc2nccnc2C2CCOCC2)cc1)c1nc2ccccc2[nH]1 [drawing 752]

Given back:
1: 8.29; 2: 7.60; 3: 8.69; 4: 8.85; 5: 9.98; 6: 9.31

// for each compound below, give its pIC50
1. COc1ncccc1-c1nccnc1Oc1ccc(Nc2nc3ccc(F)cc3s2)cc1 [drawing 959]
2. C[C@H](F)C(=O)N1CCC(c2nccnc2Oc2ccc(Nc3nc4ccccc4s3)cc2)CC1 [drawing 979]
3. N#CCC(=O)N1CCC(c2nccnc2Oc2ccc(C(=O)c3nc4ccccc4[nH]3)cc2)CC1 [drawing 997]
4. O=C(c1ccc(Oc2nccnc2N2CCOCC2)cc1)c1nc2ncccc2[nH]1
5. CC(=O)N1CCC(c2nccnc2Oc2ccc(Nc3nc4ccccc4s3)cc2F)CC1 [drawing 984]
6. CO[C@@H]1CC=C(c2nccnc2Oc2ccc(C(=O)c3nc4ccccc4[nH]3)cc2)CC1 (stereo in doubt)
7. O=C(c1ccc(Oc2nccnc2[C@H]2CC[C@@H](O)CC2)cc1)c1nc2ccccc2[nH]1 [drawing 900]
8. O=C(c1ccc(Oc2nccnc2-c2ccnc(C(F)(F)F)c2)cc1)c1nc2ccccc2[nH]1 [drawing 753]

Given back:
1. 8.14
2. 9.81
3. 10.60
4. 7.94
5. 8.95
6. 8.40
7. 8.87
8. 6.62

Hi! Can you tell me pIC50 for each of these compounds?
1. COc1cnccc1-c1nccnc1Oc1ccc(Nc2nc3ccccc3s2)cc1 [drawing 961]
2. c1ccc2sc(Nc3ccc(Oc4nccnc4[C@H]4CCOC4)cc3)nc2c1 (stereo in doubt)
3. CC(=O)N1CC[C@@H](c2nccnc2Oc2ccc(Nc3nc4ccccc4s3)cc2)C1 (stereo in doubt)
4. O=C(c1ccc(Oc2nccnc2C2CCNCC2)cc1)c1nc2ccccc2[nH]1 [drawing 999]
5. CC#CCOc1nccnc1Oc1ccc(C(=O)c2nc3ccccc3[nH]2)cc1 [drawing 852]

Given back:
8.72
8.69
8.74
8.11
6.17
